# melting point annotations

[[record]]
compound = "CCOC(=O)c1nc(N)sc1C(=O)C(C)Br (stereo not given)"
experimental_result = "158 to 160 °C"

[[record]]
compound = "Fc1ccc([C@H]2CC[C@H](NCc3ccn4c(CC5CC5)nnc4c3C(F)(F)F)CC2)c(F)c1"
experimental_result = "110 °C"

[[record]]
compound = "CCN1C(=O)C(C)(C)C(=O)N(C)c2cc(CN(CCn3ccc4oc(C)cc4c3=O)Cc3ccccc3C#N)ccc21"
experimental_result = "157 to 159 °C"

[[record]]
compound = "Cc1ccc(S(=O)(=O)N(Cc2cc(C(C)(C)C)c(O)c(C(C)(C)C)c2)c2ccc(Cl)nc2)cc1"
experimental_result = "152 to 153 °C"

[[record]]
compound = "O=Cc1c[nH]cc1-c1cccc(Cl)c1Cl"
experimental_result = "152 to 154 °C"

[[record]]
compound = "Oc1noc2ncccc12"
experimental_result = "258 °C"

[[record]]
compound = "COc1ccc(C(N)CCO)cc1OC (stereo not given)"
experimental_result = "63.5 to 65.5 °C"

[[record]]
compound = "COc1ccc2nc3c(C(=O)O)cccn3c(=O)c2c1"
experimental_result = "272 to 274 °C"

[[record]]
compound = "CNC(=O)c1ccccc1Nc1nc(Nc2ccc3c(c2)NC(=O)CCC3)ncc1Cl"
experimental_result = "293 to 295 °C"

[[record]]
compound = "CCOc1cc(OCC)c2c(c1)S(=O)(=O)N(COc1cc(C(F)(F)F)nn1-c1ccccc1)C2=O"
experimental_result = "159 to 160 °C"


// melting point lookup, compound = CCCCOC(=O)Oc1ccc(-c2ccc(C#N)cc2)cc1 , result: 64.8 to 65.7 °C

// melting point lookup, compound = CCCC[C@@]1(O)CCC[C@@]2(C)CC[C@@H]3C[C@@]21OC3(C)C , result: 90 to 92 °C

// melting point lookup, compound = CCCCNS(=O)(=O)CC(O)C(O)C(CC1CCCCC1)NC(=O)c1ccnnc1 (stereo not given) , result: 170 to 172 °C

// melting point lookup, compound = Cc1cc(C(=O)N(C)C)ccc1-c1ccc(C(=O)O)cc1 , result: 190 to 192 °C

// melting point lookup, compound = CCCCc1cccc2[nH]c(C(=O)O)cc(=O)c12 , result: 269 to 270 °C

// melting point lookup, compound = O=C(NCc1cccc(-c2nc(=O)c3ccccc3s2)n1)C(F)(F)F , result: 226 to 227 °C

// melting point lookup, compound = O=C(O)CCc1cccc(C(O)(C(F)(F)F)C(F)(F)F)c1 , result: 112 to 113 °C

// melting point lookup, compound = CCOC(=O)CC1c2cccn2S(=O)(=O)c2ccccc2N1C(=O)c1ccccc1 (stereo not given) , result: 178 to 181 °C

// melting point lookup, compound = CCCC(=NO)c1ccc(C(=O)O)cn1 , result: 203 to 205 °C

// melting point lookup, compound = COc1ccc2c(c1)C(NC(=NC#N)SC)CCC2 (stereo not given) , result: 131 to 132 °C

// melting point lookup, compound = COC(=O)c1cc(-n2c(OC)nc(C(F)(F)F)cc2=O)c(F)cc1Cl , result: 115 to 117 °C

// melting point lookup, compound = Cc1c(Cc2ccc([N+](=O)[O-])cc2)c(=O)oc2cc(OCc3nnn[nH]3)cc(OCc3nnn[nH]3)c12 , result: 240 to 244 °C

// melting point lookup, compound = CCOC(=O)c1c2n(c3ccc(Cl)cc3c1=O)CCS2 , result: 321 °C

// melting point lookup, compound = Nc1nc(NCC=Cc2ccccc2)nc(-c2cc(Cl)ccc2Cl)n1 , result: 198 to 199 °C

// melting point lookup, compound = CSc1noc(-c2ccc(OCCOc3ccc([N+](=O)[O-])cc3)cc2)c1C#N , result: 170 to 171 °C

// melting point lookup, compound = O=C(O)[C@@H](Cc1ccccc1)NS(=O)(=O)c1ccc2ccccc2c1 , result: 146 °C

// melting point lookup, compound = COc1ccc(NS(=O)(=O)c2ccc(N3CCNC3=O)cc2)cc1 , result: 210 to 211 °C

// melting point lookup, compound = COC(=O)CCC#Cc1cc(Cl)ccc1NS(=O)(=O)c1ccc(-c2ccccc2)cc1 , result: 93 °C

// melting point lookup, compound = OCCCc1ccc2ccccc2c1OCc1ccccc1 , result: 80 to 81 °C

// melting point lookup, compound = CCn1c(=O)n(CCCCC(C)(C)O)c(=O)c2[nH]cnc21 , result: 112 to 114 °C

// melting point lookup, compound = C=CCON(C)C(=O)c1nc(-c2ccc(Cl)c(OC)c2F)cc(N)c1Cl , result: 134 to 136 °C

// melting point lookup, compound = COc1ccccc1Oc1c(NS(=O)(=O)c2ccc(C(C)(C)C)cc2)nc(NCCN(C)C)nc1OCCOC1CCCCO1 (stereo not given) , result: 82 to 86 °C

// melting point lookup, compound = CC(C)(C)NS(=O)(=O)c1ccc(S(N)(=O)=O)s1 , result: 116 to 120 °C

// melting point lookup, compound = NC(CCOc1ccc(C(=NO)C(=O)NC2CN(C(C(=O)O)c3ccc(OCc4ccccc4)cc3)C2=O)cc1)C(=O)O (stereo not given) , result: 164 to 168 °C
